These measurements were taken from patent US11352322B2.

target: HDAC6 human recombinant enzyme (Homo sapiens (Human), UniProt Q9UBN7); assay: Histone Deacetylase Assay (BPS Biosciences), HDAC6
Sequence (Q9UBN7 whole entry): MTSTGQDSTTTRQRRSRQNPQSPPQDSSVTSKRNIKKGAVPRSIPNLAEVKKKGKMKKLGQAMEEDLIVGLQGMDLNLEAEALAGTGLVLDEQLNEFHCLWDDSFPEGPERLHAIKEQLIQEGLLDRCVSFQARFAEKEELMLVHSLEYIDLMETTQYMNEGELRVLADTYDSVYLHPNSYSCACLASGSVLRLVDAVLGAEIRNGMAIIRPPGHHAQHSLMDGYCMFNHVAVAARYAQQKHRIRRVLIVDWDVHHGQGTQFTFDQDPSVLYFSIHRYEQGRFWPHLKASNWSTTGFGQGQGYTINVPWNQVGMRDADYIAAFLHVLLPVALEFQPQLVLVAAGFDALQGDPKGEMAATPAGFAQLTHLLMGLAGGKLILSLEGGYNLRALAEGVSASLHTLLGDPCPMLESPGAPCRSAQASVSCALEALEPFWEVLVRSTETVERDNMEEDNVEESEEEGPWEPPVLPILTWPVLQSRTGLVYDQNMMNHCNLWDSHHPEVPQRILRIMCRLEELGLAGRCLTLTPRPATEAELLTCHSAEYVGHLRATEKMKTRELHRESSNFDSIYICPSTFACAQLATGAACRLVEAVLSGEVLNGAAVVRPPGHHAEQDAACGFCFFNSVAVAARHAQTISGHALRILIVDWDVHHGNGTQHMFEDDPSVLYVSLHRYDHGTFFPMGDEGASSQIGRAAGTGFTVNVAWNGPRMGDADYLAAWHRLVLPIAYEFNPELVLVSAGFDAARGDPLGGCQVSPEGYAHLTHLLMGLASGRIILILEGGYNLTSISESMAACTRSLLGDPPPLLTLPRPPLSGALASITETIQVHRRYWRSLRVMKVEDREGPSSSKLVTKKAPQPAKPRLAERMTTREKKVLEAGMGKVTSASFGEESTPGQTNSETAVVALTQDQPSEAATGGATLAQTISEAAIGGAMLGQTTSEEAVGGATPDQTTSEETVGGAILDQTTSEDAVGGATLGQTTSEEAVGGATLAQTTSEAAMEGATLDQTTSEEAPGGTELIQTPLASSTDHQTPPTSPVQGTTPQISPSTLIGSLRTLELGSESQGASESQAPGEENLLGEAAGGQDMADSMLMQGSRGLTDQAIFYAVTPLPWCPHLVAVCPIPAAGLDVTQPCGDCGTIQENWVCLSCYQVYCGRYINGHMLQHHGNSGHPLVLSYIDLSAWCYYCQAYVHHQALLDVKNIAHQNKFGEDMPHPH
Counter-ions that a name gives are not always drawn.
PROPERTY_MEASURED: pIC50
Field pIC50 (float): negative decimal logarithm of the concentration in molar.

Query :: Name the reported pIC50 value associated with the compound O=C(NO)c1ccc(/C=C/C(=O)N2CCC(CN[C@@H]3C[C@H]3c3ccc(F)cc3)CC2)cc1 [Example 115A, TFA Salt]
Result :: 7.30

Query :: Name the reported pIC50 value associated with the compound O=C(NO)c1cnc(N2CCC(CNC3CC3c3ccc(-c4ccc(F)cc4)cc3)CC2)nc1 (centres unmarked) [Example 15, TFA Salt]
Result :: 6.87

Query :: Name the reported pIC50 value associated with the compound Cn1cc(-c2ccc(C3CC3NCC3CN(C(=O)/C=C/c4ccc(C(=O)NO)cc4)C3)cc2)cn1 (centres unmarked) [Example 119, TFA Salt]
Result :: 7.31

Query :: Name the reported pIC50 value associated with the compound O=C(NO)c1ccc(/C=C/C(=O)N2CCC(CNC3CC3c3ccccc3)CC2)cc1 (centres unmarked) [Example 114, TFA Salt]
Result :: 7.17
